# test_target: Human recombinant PDE3A (hPDE3A) (Homo sapiens)
# Construct: purchased Scottish Biomedical; host or cells: Sf9 insect cells
# Sequence (Q14432 whole entry): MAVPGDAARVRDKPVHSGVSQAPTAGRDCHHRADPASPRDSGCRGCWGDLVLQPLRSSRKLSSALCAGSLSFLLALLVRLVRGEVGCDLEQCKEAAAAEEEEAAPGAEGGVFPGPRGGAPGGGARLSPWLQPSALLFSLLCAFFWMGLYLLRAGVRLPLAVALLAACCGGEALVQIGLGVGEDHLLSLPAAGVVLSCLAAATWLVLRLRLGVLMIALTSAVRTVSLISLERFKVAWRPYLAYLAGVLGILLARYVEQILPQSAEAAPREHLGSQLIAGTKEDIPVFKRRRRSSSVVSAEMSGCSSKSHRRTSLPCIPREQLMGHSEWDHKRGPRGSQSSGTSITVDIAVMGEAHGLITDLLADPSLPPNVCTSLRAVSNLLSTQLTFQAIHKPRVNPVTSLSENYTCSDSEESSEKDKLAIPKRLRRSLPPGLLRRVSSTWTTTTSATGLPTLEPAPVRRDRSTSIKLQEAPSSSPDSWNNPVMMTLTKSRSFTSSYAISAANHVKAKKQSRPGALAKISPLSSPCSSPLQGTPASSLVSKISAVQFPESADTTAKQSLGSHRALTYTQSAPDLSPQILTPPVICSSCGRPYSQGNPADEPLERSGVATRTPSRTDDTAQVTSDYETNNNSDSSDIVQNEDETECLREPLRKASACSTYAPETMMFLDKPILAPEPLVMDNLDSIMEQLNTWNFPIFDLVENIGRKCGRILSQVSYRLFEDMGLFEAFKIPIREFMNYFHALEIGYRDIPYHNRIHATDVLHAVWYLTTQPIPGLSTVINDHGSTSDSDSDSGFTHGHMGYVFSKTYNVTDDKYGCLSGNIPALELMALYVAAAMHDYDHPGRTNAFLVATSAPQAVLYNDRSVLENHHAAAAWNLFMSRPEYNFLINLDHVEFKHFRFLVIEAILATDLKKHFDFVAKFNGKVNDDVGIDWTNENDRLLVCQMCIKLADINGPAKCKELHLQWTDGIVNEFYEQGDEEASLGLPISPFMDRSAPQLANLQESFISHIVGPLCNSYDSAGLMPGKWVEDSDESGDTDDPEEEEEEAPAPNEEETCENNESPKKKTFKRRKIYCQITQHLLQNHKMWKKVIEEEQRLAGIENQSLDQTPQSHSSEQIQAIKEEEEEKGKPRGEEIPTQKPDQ
# protocol_summary: In vitro assay PDE3A (SPA, 3H-cAMP hydrolysis);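 further: the method names PDE3A and the table heading PDE3B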
# Type: biochemical
# run_parameters: read-out: hPDE3B Emax; read-out: Emax
Mark condition not met for Emax values under 80%, and condition met for everything at or above.

{"compound": "Cc1cc(C(=O)N2CC[C@@H](C)[C@H](c3cc(C(F)F)nc4ncnn34)C2)no1", "class": "condition not met"}
{"compound": "COc1nc(N)ncc1C(=O)N1CC[C@@H](C)[C@H](c2cc(C(F)F)nc3ncnn23)C1", "class": "condition not met"}
{"compound": "CCn1ccc2cc(C(=O)N3[C@H]4CC[C@H](c5cc(C(F)F)nc6ncnn56)[C@@H]3CC4)ccc21", "class": "condition met"}
{"compound": "Cc1ccc(C(=O)N2[C@H]3CC[C@H](c4cc(C(F)F)nc5ncnn45)[C@@H]2CC3)o1", "class": "condition not met"}
{"compound": "C[C@@H]1CCN(C(=O)c2ccc3c(c2)OCCC3)C[C@H]1c1cc(C(F)F)nc2ncnn12", "class": "condition not met"}
{"compound": "COc1c(C)cc(C(=O)N2CC[C@@H](C)[C@H](c3cc(C(F)F)nc4ncnn34)C2)cc1C", "class": "condition met"}
{"compound": "C/C(=C\\c1ccccc1)C(=O)N1[C@H]2CC[C@H](c3cc(C(F)F)nc4ncnn34)[C@@H]1CC2", "class": "condition met"}
{"compound": "Cn1ccc2cc(C(=O)N3[C@H]4CC[C@H](c5cc(C(F)F)nc6ncnn56)[C@@H]3CC4)ncc21", "class": "condition not met"}
{"compound": "C[C@@H]1CCN(C(=O)c2ccc(Cl)c(Cl)c2)C[C@H]1c1cc(C(F)F)nc2ncnn12", "class": "condition met"}
{"compound": "Cc1cc(Cl)cc(C(=O)N2[C@H]3CC[C@H](c4cc(C(F)F)nc5ncnn45)[C@@H]2CC3)c1", "class": "condition not met"}
{"compound": "Cc1cc(C(=O)N2CC[C@@H](C)[C@H](c3cc(C)nc4ncnn34)C2)cc(C(F)(F)F)n1", "class": "condition not met"}
{"compound": "Cc1csc(C(=O)N2CC[C@H](C)[C@@H](c3cc(C(F)F)nc4ncnn34)C2)c1", "class": "condition not met"}
{"compound": "Cc1cc([C@@H]2CN(C(=O)c3cc4c(nc3Cl)CCCC4)CC[C@H]2C)n2ncnc2n1", "class": "condition met"}
{"compound": "Cc1nc2cccc(C(=O)N3CC[C@@H](C)[C@H](c4cc(C(F)F)nc5ncnn45)C3)c2o1", "class": "condition not met"}
{"compound": "C[C@@H]1CCN(C(=O)c2cn(C)cn2)C[C@H]1c1cc(C(F)F)nc2ncnn12", "class": "condition not met"}
{"compound": "O=C(c1ccc2ncc(F)cc2c1)N1[C@H]2CC[C@H](c3cc(C(F)F)nc4ncnn34)[C@@H]1CC2", "class": "condition not met"}
{"compound": "C[C@@H]1CCN(C(=O)c2ccc(OC(F)F)c(F)c2)C[C@H]1c1cc(C(F)F)nc2ncnn12", "class": "condition met"}
{"compound": "Cc1cc([C@H]2CN(C(=O)c3cc(C)c(Cl)c(C)c3)CC[C@@H]2C)n2ncnc2n1", "class": "condition not met"}
{"compound": "Cc1cc([C@@H]2CN(C(=O)c3ccc4occc4c3)CC[C@H]2C)n2ncnc2n1", "class": "condition met"}
{"compound": "Cc1cc([C@@H]2CN(C(=O)c3cc(C)c(C)cn3)CC[C@H]2C)n2ncnc2n1", "class": "condition not met"}
{"compound": "Cc1cc(C)cc(C(=O)N2CC[C@H](C)[C@@H](c3cc(C(F)F)nc4ncnn34)C2)c1", "class": "condition not met"}
{"compound": "C[C@@H]1CCN(C(=O)c2ccn3cccc3c2)C[C@H]1c1cc(C(F)F)nc2ncnn12", "class": "condition met"}
{"compound": "Cc1cc(C(=O)N2[C@H]3CC[C@@H]2[C@H](c2cc(C(F)F)nc4ncnn24)CC3)cc(C2CC2)n1", "class": "condition not met"}
{"compound": "C[C@@H]1CCN(C(=O)c2cnc3c(Cl)cccc3c2)C[C@H]1c1cc(C(F)F)nc2ncnn12", "class": "condition met"}
{"compound": "C[C@@H]1CCN(C(=O)c2cc(Cl)cc(Cl)c2)C[C@H]1c1cc(C(F)F)nc2ncnn12", "class": "condition met"}
{"compound": "COc1cc(C(=O)N2CC[C@@H](C)[C@H](c3cc(C(F)F)nc4ncnn34)C2)cc(C)n1", "class": "condition not met"}
{"compound": "C[C@]1(c2cc(C(F)F)nc3ncnn23)CCCN(C(=O)c2ccc3occc3c2)C1 (single isomer, unassigned)", "class": "condition not met"}
{"compound": "C[C@@H]1CCN(C(=O)c2ccc3ncoc3c2)C[C@H]1c1cc(C(F)F)nc2ncnn12", "class": "condition met"}
{"compound": "COc1ccc2nc(C(=O)N3CC[C@@H](C)[C@H](c4cc(C(F)F)nc5ncnn45)C3)sc2c1", "class": "condition met"}
{"compound": "C[C@H]1CCN(C(=O)c2ccc3ncsc3c2)C[C@]1(F)c1cc(C(F)F)nc2ncnn12", "class": "condition not met"}
